These entries and their values trace back to BindingDB's records for PubMed 33650861.

assay_name: Inhibition of BET (unknown origin)
assay_endpoint: IC50 (nM)
Your answer is read as nM, so omit the unit and give the number.

Exam item: Query: IC50; subject: `Cc1sc2c(c1C)C(c1ccc(Cl)cc1)=N[C@@H](CC(=O)OC(C)(C)C)c1nnc(C)n1-2`
Marked response: 500
